- system-name: human PD-1 (Jurkat-PD-1 cells) / PE-labeled human PD-L1-Ig (Homo sapiens, UniProt Q15116)
- Construct: expressed in transfected cells; host or cells: Jurkat cell line over-expressing human PD-1
- Sequence (Q15116 25-288): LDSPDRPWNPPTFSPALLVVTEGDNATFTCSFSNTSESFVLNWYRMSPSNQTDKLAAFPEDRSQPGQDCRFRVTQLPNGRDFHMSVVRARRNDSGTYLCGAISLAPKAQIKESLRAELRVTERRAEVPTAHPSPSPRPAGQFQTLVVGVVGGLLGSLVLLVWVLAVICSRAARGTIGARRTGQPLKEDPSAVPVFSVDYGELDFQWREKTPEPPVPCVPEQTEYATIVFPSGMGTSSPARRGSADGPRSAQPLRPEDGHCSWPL
- assay-protocol: Jurkat-PD-1 Cell Binding High-Content Screening Assay (CBA); Jurkat hPD1-PDL1 assay
- measurement-context: Jurkat cell line over-expressing human PD-1; PE-labeled PD-L1-Ig 20 nM final; compound incubated 2 hours at 37° C.; read-out: Jurkat HPD1-PDL1 IC50
Positions of bridges follow the written chain, without caps; N, C: chain ends. Non-standard residues stand in square brackets, D forms with d. Residues, ends and D or L forms follow the SMILES beside them. Bip = N[C@@H](Cc1ccc(-c2ccccc2)cc1)C(=O)O; NMeF = CN[C@@H](Cc1ccccc1)C(=O)O; NMeA = CN[C@@H](C)C(=O)O
experimental-endpoint: IC50 (µM)
Give the number; µM is assumed, so skip it.

molecule	IC50, µM
CC(C)C[C@@H]1NC(=O)[C@H](CCCNC(=N)N)NC(=O)[C@H](Cc2ccccc2)N(C)C(=O)[C@H](C)N(C)C(=O)[C@H](CCCNC(=N)N)NC(=O)[C@H](Cc2ccc(-c3ccccc3)cc2)NC(=O)[C@H](C(C)C)NC(=O)[C@H](Cc2c[nH]c3ccccc23)NC(=O)[C@H](CC(=O)O)NC(=O)[C@H](Cc2ccc(O)cc2)NC(=O)[C@H](CC(N)=O)NC(=O)CSC[C@@H](C(=O)NCC(N)=O)NC(=O)[C@H](CO)NC(=O)[C@H](C(C)C)NC1=O [Example 1032] ({CH2CO}-NYDWV[Bip]R[NMeA][NMeF]RLVSCG-NH2; thioether N-14)	0.06

q: Given CC(C)C[C@@H]1NC(=O)[C@H](CCCNC(=N)N)NC(=O)[C@H]2CCCN2C(=O)[C@H](C)N(C)C(=O)[C@H](CCCNC(=N)N)NC(=O)[C@H](Cc2ccc(-c3ccccc3)cc2)NC(=O)[C@H](C(C)C)NC(=O)[C@H](Cc2c[nH]c3ccccc23)NC(=O)[C@H](CC(=O)O)NC(=O)[C@H](Cc2ccc(O)cc2)NC(=O)[C@H](Cc2ccccc2)NC(=O)CSC[C@@H](C(=O)N[C@@H](C)C(N)=O)NC(=O)[C@H](CO)NC(=O)[C@H](C(C)C)NC1=O [Example 1122] ({CH2CO}-FYDWV[Bip]R[NMeA][dP]RLVSCA-NH2; thioether N-14) , state its recorded IC50.
a: 0.43

====

- system-name: human PD-1 (Jurkat-PD-1 cells) / PE-labeled human PD-L1-Ig (Homo sapiens)
- Construct: expressed in transfected cells; host or cells: Jurkat cell line over-expressing human PD-1
- assay-protocol: Jurkat-PD-1 Cell Binding High-Content Screening Assay (CBA); Jurkat hPD1-PDL1 assay
- measurement-context: Jurkat cell line over-expressing human PD-1; PE-labeled PD-L1-Ig 20 nM final; compound incubated 2 hours at 37° C.; read-out: Jurkat HPD1-PDL1 IC50
Positions of bridges follow the written chain, without caps; N, C: chain ends. Non-standard residues stand in square brackets, D forms with d. Residues, ends and D or L forms follow the SMILES beside them. Bip = N[C@@H](Cc1ccc(-c2ccccc2)cc1)C(=O)O; Phe(3-OMe) = COc1cccc(C[C@H](N)C(=O)O)c1; NMeF = CN[C@@H](Cc1ccccc1)C(=O)O; NMeA = CN[C@@H](C)C(=O)O; Orn = NCCC[C@H](N)C(=O)O; Dab = NCC[C@H](N)C(=O)O; Dap = NC[C@H](N)C(=O)O; Sar = CNCC(=O)O
List of IC50 values.
Respond numerically; units are nM and should not be typed.

compound	reported-result
CC(C)C[C@@H]1NC(=O)[C@H](Cc2c[nH]c3ccccc23)NC(=O)[C@H](CC(=O)O)NC(=O)[C@H](Cc2ccc(O)cc2)NC(=O)[C@H](Cc2ccccc2)NC(=O)CSC[C@@H](C(=O)N[C@@H](C)C(N)=O)NC(=O)[C@H](CO)NC(=O)[C@H](C(C)C)NC(=O)[C@H](CC(C)C)NC(=O)[C@H](CC(N)=O)NC(=O)CN(C)C(=O)[C@H](C)N(C)C(=O)[C@H](C(C)C)NC(=O)[C@H](Cc2ccc(-c3ccccc3)cc2)NC1=O [Example 1252] ({CH2CO}-FYDWL[Bip]V[NMeA][Sar]NLVSCA-NH2; thioether N-14)	190
CC(C)C[C@@H]1NC(=O)[C@H](Cc2c[nH]c3ccccc23)NC(=O)[C@H](CC(=O)O)NC(=O)[C@H](Cc2ccc(O)cc2)NC(=O)[C@H](Cc2ccccc2)NC(=O)CSC[C@@H](C(=O)NCC(N)=O)NC(=O)[C@H]([C@@H](C)O)NC(=O)[C@H](C(C)C)NC(=O)[C@H](CC(C)C)NC(=O)[C@H](CCN)NC(=O)[C@H]2CCCN2C(=O)[C@H](C)N(C)C(=O)[C@H](C(C)C)NC(=O)[C@H](Cc2ccc(-c3ccccc3)cc2)NC1=O [Example 1396] ({CH2CO}-FYDWL[Bip]V[NMeA][dP][Dab]LVTCG-NH2; thioether N-14)	70
CC(C)C[C@@H]1NC(=O)[C@H](Cc2c[nH]c3ccccc23)NC(=O)[C@H](CC(=O)O)NC(=O)[C@H](Cc2ccc(O)cc2)NC(=O)[C@H](Cc2ccccc2)NC(=O)CSC[C@@H](C(=O)N[C@@H](C)C(N)=O)NC(=O)[C@H](CO)NC(=O)[C@H](C(C)C)NC(=O)[C@H](CC(C)C)NC(=O)[C@H](CC(N)=O)NC(=O)[C@H]2CCCN2C(=O)[C@H](CCCN)NC(=O)[C@H](C(C)C)NC(=O)[C@H](Cc2ccc(-c3ccccc3)cc2)NC1=O [Example 1200] ({CH2CO}-FYDWL[Bip]V[Orn][dP]NLVSCA-NH2; thioether N-14)	30
CC(C)C[C@@H]1NC(=O)[C@H](C)NC(=O)[C@H](Cc2ccccc2)N(C)C(=O)[C@H](C)N(C)C(=O)[C@H](CCCNC(=N)N)NC(=O)[C@H](Cc2ccc(-c3ccccc3)cc2)NC(=O)[C@H](C(C)C)NC(=O)[C@H](Cc2c[nH]c3ccccc23)NC(=O)[C@H](CC(=O)O)NC(=O)[C@H](Cc2ccc(O)cc2)NC(=O)[C@H](Cc2ccccc2)NC(=O)CSC[C@@H](C(=O)NCC(N)=O)NC(=O)[C@H](CO)NC(=O)[C@H](C(C)C)NC1=O [Example 1209] ({CH2CO}-FYDWV[Bip]R[NMeA][NMeF]ALVSCG-NH2; thioether N-14)	780
COc1cccc(C[C@@H]2NC(=O)[C@H](CC(=O)O)NC(=O)[C@H](Cc3ccc(O)cc3)NC(=O)[C@H](Cc3ccccc3)NC(=O)CSC[C@@H](C(=O)N[C@@H](C)C(N)=O)NC(=O)[C@H](CO)NC(=O)[C@H](C(C)C)NC(=O)[C@H](CC(C)C)NC(=O)[C@H](CC(N)=O)NC(=O)CN(C)C(=O)[C@H](C)N(C)C(=O)[C@H](C(C)C)NC(=O)[C@H](Cc3ccc(-c4ccccc4)cc3)NC(=O)[C@H](CC(C)C)NC2=O)c1 [Example 1106] ({CH2CO}-FYD[Phe(3-OMe)]L[Bip]V[NMeA][Sar]NLVSCA-NH2; thioether N-14)	330
CC(C)C[C@@H]1NC(=O)[C@H](CC(C)C)NC(=O)[C@H](CCCNC(=N)N)NC(=O)[C@H](Cc2ccccc2)N(C)C(=O)[C@H](C)N(C)C(=O)[C@H](CCCNC(=N)N)NC(=O)[C@H](Cc2ccc(-c3ccccc3)cc2)NC(=O)[C@H](C(C)C)NC(=O)[C@H](Cc2c[nH]c3ccccc23)NC(=O)[C@H](CC(=O)O)NC(=O)[C@H](Cc2ccc(O)cc2)NC(=O)[C@H](Cc2ccccc2)NC(=O)CSC[C@@H](C(=O)NCC(N)=O)NC(=O)[C@H](CO)NC1=O [Example 1325] ({CH2CO}-FYDWV[Bip]R[NMeA][NMeF]RLLSCG-NH2; thioether N-14)	590

q: Given the entry CC(C)C[C@@H]1NC(=O)[C@H](Cc2c[nH]c3ccccc23)NC(=O)[C@H](CC(=O)O)NC(=O)[C@H](Cc2ccc(O)cc2)NC(=O)[C@H](Cc2ccccc2)NC(=O)CSC[C@@H](C(=O)N[C@@H](C)C(N)=O)NC(=O)[C@H]([C@@H](C)O)NC(=O)[C@H](C(C)C)NC(=O)[C@H](CC(C)C)NC(=O)[C@H](CCN)NC(=O)[C@H]2CCCN2C(=O)[C@H](CN)NC(=O)[C@H](C(C)C)NC(=O)[C@H](Cc2ccc(-c3ccccc3)cc2)NC1=O [Example 1409] ({CH2CO}-FYDWL[Bip]V[Dap][dP][Dab]LVTCA-NH2; thioether N-14) , report its measured IC50.
a: 280

q: GET /values?readout=IC50&item= CC(C)C[C@@H]1NC(=O)[C@H](CCN)NC(=O)[C@H](Cc2ccccc2)N(C)C(=O)[C@H](C)N(C)C(=O)[C@H](CCCNC(=N)N)NC(=O)[C@H](Cc2ccc(-c3ccccc3)cc2)NC(=O)[C@H](C(C)C)NC(=O)[C@H](Cc2c[nH]c3ccccc23)NC(=O)[C@H](CC(=O)O)NC(=O)[C@H](Cc2ccc(O)cc2)NC(=O)[C@H](CC(N)=O)NC(=O)CSC[C@@H](C(=O)N[C@@H](C)C(N)=O)NC(=O)[C@H](CO)NC(=O)[C@H](C(C)C)NC1=O [Example 1303] ({CH2CO}-NYDWV[Bip]R[NMeA][NMeF][Dab]LVSCA-NH2; thioether N-14)
a: 70

Data origin: patent US20240360178A1
